Cited source: patent US11801255B2

assay: Stability in PBS (pH 7.4), carbonate/bicarbonate buffer (pH 9) and DMEM by LC-MS; details: PBS buffer, carbonate/bicarbonate buffer and DMEM, pH 9
Measurement Label: half-life

Problem: Tell me its half-life given CCCCCCCCCCCCCCCCSSCCOP(=O)(O)COC(C)Cn1cnc2c(N)ncnc21 (stereo not shown) [Compound 11d] as the entry.
Solution: ≤ 2 h

###

system: HBV; test: Antiviral activity against HBV in HepG2.2.15 cells, viral DNA by qPCR after 6 days; conditions: Hepatitis B virus, HepG2, read-out: HBV EC50 (HepG2)
Measurement Label: EC50
Express your answer as a number followed by its unit.

Problem: Check HBV data and give EC50 for CCCCCCCCCCCCCCCCSSCCOP(=O)(O)COC(C)Cn1cnc2c(N)ncnc21 (stereo not shown) [Compound 11d] .
Solution: 20 nM
